Biological target: HLA-A*2902 (human)
Experiment: inhibition of 125I-labelled probe peptide binding to purified HLA, gel filtration; standard peptide (allele listed again under supertype A24)
pIC50: −log10 of the molar value.
observedProperty: pIC50

binder="YTAVVPLVY (modifications not checked) [standard peptide …]" observedproperty=pIC50 measurednumber=8.30
